# procedure details: Half life in rat
# Type: ADME, organism-based
# recorded conditions: in vivo
assay readout: half-life (min)

In [3]: df
Out[3]:
                               input_smiles  assay_readout  val
0  CCn1ccn2c(-c3ccc(F)c(-c4ccc(F)cc4C#N)c3)cnc2c1=O      half-life  300

----------
# tgt: GABA-A receptor; alpha-1/beta-3/gamma-2 (Homo sapiens) (UniProt P14867+P18507+P28472)
# procedure details: Efficacy against human recombinant GABA-Aalpha1 receptor plus beta-3-gamma-2 expressed in L(tk-) cells by whole cell patch clamp method
# Type: functional, cell-based
assay readout: Efficacy (%)

In [3]: df
Out[3]:
                               input_smiles  assay_readout  val
0  CC(C)(O)c1cnn2c(-c3ccc(F)c(-c4c(F)cccc4C#N)c3)cnc2n1       Efficacy    4
1  Cn1cnn2c(-c3ccc(F)c(-c4ccc(F)cc4C#N)c3)cnc2c1=O       Efficacy  -46
2  CCn1ccn2c(-c3ccc(F)c(-c4ccc(F)cc4C#N)c3)cnc2c1=O       Efficacy   -8
3  Cn1ccn2c(-c3ccc(F)c(-c4ccc(F)cc4C#N)c3)cnc2c1=O       Efficacy  -27
4  CCn1ncn2c(-c3ccc(F)c(-c4ccc(F)cc4C#N)c3)cnc2c1=O       Efficacy  -19
5  Cn1ncn2c(-c3ccc(F)c(-c4ccc(F)cc4C#N)c3)cnc2c1=O       Efficacy   -9
6  Cn1ccn2c(-c3ccc(F)c(-c4ccccc4C#N)c3)cnc2c1=O       Efficacy   27
7  Cn1ccn2c(-c3ccc(F)c(-c4c(F)cccc4C#N)c3)cnc2c1=O       Efficacy    3

----------
// values below are reported Ki
# tgt: GABA-A receptor; alpha-1/beta-3/gamma-2 (Homo sapiens, UniProt P14867+P18507+P28472)
# Sequence (P14867 whole entry): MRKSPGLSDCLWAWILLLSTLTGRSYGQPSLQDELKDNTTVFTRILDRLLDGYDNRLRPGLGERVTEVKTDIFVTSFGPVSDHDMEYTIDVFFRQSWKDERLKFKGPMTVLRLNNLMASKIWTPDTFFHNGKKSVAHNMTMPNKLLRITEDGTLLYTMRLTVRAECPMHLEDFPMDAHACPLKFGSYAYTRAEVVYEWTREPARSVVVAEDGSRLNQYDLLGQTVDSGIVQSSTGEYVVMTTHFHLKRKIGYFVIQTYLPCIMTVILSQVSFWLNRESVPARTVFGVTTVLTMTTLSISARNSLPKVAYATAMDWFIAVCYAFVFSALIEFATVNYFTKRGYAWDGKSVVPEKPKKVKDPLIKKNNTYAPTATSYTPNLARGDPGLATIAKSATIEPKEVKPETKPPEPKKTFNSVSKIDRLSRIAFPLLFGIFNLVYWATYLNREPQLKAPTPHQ
# Sequence (P18507 whole entry): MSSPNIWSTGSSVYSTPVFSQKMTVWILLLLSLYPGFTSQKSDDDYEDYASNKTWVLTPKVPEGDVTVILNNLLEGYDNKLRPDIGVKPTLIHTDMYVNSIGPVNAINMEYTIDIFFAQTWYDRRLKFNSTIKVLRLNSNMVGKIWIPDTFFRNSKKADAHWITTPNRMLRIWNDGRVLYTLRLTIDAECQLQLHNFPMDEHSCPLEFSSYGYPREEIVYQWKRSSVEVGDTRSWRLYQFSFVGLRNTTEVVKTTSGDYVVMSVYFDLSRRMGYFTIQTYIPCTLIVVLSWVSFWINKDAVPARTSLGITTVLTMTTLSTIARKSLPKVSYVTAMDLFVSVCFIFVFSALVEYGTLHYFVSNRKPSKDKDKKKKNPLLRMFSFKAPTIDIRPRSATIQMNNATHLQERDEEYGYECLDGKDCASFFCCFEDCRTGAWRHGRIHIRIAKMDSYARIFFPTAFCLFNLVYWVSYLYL
# Sequence (P28472 whole entry): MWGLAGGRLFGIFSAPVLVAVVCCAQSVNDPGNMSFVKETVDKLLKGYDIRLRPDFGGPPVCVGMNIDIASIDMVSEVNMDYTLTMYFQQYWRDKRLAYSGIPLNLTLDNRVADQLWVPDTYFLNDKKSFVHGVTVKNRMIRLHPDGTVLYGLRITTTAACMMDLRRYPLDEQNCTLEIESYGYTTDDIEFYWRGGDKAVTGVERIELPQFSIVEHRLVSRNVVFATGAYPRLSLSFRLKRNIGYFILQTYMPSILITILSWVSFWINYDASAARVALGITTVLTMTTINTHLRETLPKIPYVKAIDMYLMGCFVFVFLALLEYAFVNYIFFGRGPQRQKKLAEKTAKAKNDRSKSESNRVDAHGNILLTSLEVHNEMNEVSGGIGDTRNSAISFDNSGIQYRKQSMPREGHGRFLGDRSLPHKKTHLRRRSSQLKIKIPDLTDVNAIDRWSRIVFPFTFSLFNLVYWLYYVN
# procedure details: Displacement of [3H]Ro-151788 from human recombinant GABA-Aalpha1 receptor plus beta3gamma2
assay readout: Ki (nM)

                               input_smiles   val
0  Cn1ccn2c(-c3ccc(F)c(-c4c(F)cccc4C#N)c3)cnc2c1=O  0.16
1  Cn1ncn2c(-c3ccc(F)c(-c4ccc(F)cc4C#N)c3)cnc2c1=O   6.5
2  CC(C)(O)c1cnn2c(-c3ccc(F)c(-c4c(F)cccc4C#N)c3)cnc2n1   0.6
3  CCn1ccn2c(-c3ccc(F)c(-c4ccc(F)cc4C#N)c3)cnc2c1=O  0.28

----------
# tgt: GABA-A receptor; alpha-1/beta-3/gamma-2 (Homo sapiens, UniProt P14867+P18507+P28472)
# procedure details: Displacement of [3H]Ro-151788 from human recombinant GABA-Aalpha1 receptor plus beta3gamma2
// Ki lookup, one value per entry
assay readout: Ki (nM)

>>> df
                               input_smiles                                       tgt  assay_readout   val
0  Cn1ccn2c(-c3ccc(F)c(-c4ccccc4C#N)c3)cnc2c1=O  GABA-A receptor; alpha-1/beta-3/gamma-2 (Homo sapiens, UniProt P14867+P18507+P28472)             Ki  0.53
1  CC(C)(O)c1ccn2c(-c3ccc(F)c(-c4cccnc4)c3)cnc2n1  GABA-A receptor; alpha-1/beta-3/gamma-2 (Homo sapiens, UniProt P14867+P18507+P28472)             Ki   1.4
2  CCn1ncn2c(-c3ccc(F)c(-c4ccc(F)cc4C#N)c3)cnc2c1=O  GABA-A receptor; alpha-1/beta-3/gamma-2 (Homo sapiens, UniProt P14867+P18507+P28472)             Ki   2.4
3  Cn1cnn2c(-c3ccc(F)c(-c4ccc(F)cc4C#N)c3)cnc2c1=O  GABA-A receptor; alpha-1/beta-3/gamma-2 (Homo sapiens, UniProt P14867+P18507+P28472)             Ki   2.5
4  Cn1ccn2c(-c3ccc(F)c(-c4ccc(F)cc4C#N)c3)cnc2c1=O  GABA-A receptor; alpha-1/beta-3/gamma-2 (Homo sapiens, UniProt P14867+P18507+P28472)             Ki   0.7

----------
# procedure details: Plasma clearance in rat
# Assay type: ADME, organism-based
assay readout: clearance

>>> df
                               input_smiles  assay_readout           val
0  CCn1ccn2c(-c3ccc(F)c(-c4ccc(F)cc4C#N)c3)cnc2c1=O      clearance  17 mL/min/kg

----------
# Efficacy per record follows
# tgt: GABA-A receptor; alpha-3/beta-3/gamma-2 (Homo sapiens) (UniProt P18507+P28472+P34903)
# procedure details: Efficacy against human recombinant GABA-Aalpha3 receptor plus beta-3-gamma-2 expressed in L(tk-) cells by whole cell patch clamp method
# Type: functional, cell-based
assay readout: Efficacy (%)

In [3]: df
Out[3]:
                               input_smiles  assay_readout  unit_of_measurement  val
0  CCn1ncn2c(-c3ccc(F)c(-c4ccc(F)cc4C#N)c3)cnc2c1=O       Efficacy                    %   -7
1  Cn1ccn2c(-c3ccc(F)c(-c4ccc(F)cc4C#N)c3)cnc2c1=O       Efficacy                    %   44
2  CC(C)(O)c1cnn2c(-c3ccc(F)c(-c4c(F)cccc4C#N)c3)cnc2n1       Efficacy                    %   65
3  CCn1ccn2c(-c3ccc(F)c(-c4ccc(F)cc4C#N)c3)cnc2c1=O       Efficacy                    %   43
4  Cn1ncn2c(-c3ccc(F)c(-c4ccc(F)cc4C#N)c3)cnc2c1=O       Efficacy                    %    1
5  Cn1ccn2c(-c3ccc(F)c(-c4c(F)cccc4C#N)c3)cnc2c1=O       Efficacy                    %   28
6  Cn1ccn2c(-c3ccc(F)c(-c4ccccc4C#N)c3)cnc2c1=O       Efficacy                    %   51
